Values were extracted from patent US11976083B2.

Molecular target: human PAD4 (Homo sapiens)
Construct: human PAD4 (NM_012387), A2-P663, was PCR amplified; His-SUMO (N, cleaved yes)
Sequence (Q9UM07 2-663): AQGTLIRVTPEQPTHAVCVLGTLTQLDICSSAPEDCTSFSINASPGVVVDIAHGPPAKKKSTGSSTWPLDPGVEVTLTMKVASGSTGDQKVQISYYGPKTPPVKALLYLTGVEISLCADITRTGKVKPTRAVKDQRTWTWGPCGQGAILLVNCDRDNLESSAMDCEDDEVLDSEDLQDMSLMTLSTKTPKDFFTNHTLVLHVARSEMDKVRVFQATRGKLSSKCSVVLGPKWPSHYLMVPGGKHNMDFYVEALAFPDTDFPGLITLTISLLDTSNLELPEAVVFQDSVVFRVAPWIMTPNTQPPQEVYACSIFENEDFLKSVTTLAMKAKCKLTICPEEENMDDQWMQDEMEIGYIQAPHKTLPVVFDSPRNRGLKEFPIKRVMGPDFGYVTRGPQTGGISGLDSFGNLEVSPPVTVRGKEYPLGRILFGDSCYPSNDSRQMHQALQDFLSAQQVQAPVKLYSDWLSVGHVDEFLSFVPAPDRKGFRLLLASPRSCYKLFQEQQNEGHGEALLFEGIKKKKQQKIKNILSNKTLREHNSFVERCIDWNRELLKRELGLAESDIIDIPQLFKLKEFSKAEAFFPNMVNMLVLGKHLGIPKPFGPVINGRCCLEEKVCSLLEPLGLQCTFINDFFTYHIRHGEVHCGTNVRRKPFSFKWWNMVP
Assay: In vitro PAD4 BAEE biochemical assay
Conditions: BAEE substrate 3 mM, 5 nM PAD4, 2 mM calcium chloride; geometric mean of multiple experiments
Text: In Vitro PAD4 BAEE Biochemical Assay The enzymatic activity of human PAD4 was monitored in a biochemical assay in the presence or absence of compounds using the small peptidyl arginine mimic BAEE (Na-Benzoyl-L-arginine ethyl ester hydrochloride) as substrate. PAD4 activity led to deimination of BAEE and release of ammonia. Levels of ammonia were monitored by using an amine coupling reaction and were indicative of PAD4 enzymatic activity. […]
Measured Property: IC50 (nM)

> print(dat)
                                smiles.repr  numeric.value
1  COc1cc(C(=O)N2[C@H]3CC[C@@H]2[C@H](N)C3)cc2nc(-c3cc4ccc5cc4n3CCCCCCC3(CC3)C(=O)N[C@@H]5C)n(C3CC3)c12             73

P. COc1cc(C(=O)N2C[C@H](N)[C@@H]3CC[C@H]2C3)cc2nc(-c3cc4ccc5nc4n3CCCCCOC(C)(C)C(=O)N[C@@H]5C)n(C3CC3)c12
Q. COc1cc(C(=O)NC2CNC2)cc2nc(-c3cc4ccc5nc4n3CCCCCCC(C)(C)C(=O)N[C@@H]5C)n(C)c12
## Task // pick larger IC50 from pair: P vs Q Your answer should be the label of the entry you select.
## Result Q
